test.system: NaV1.5 (Homo sapiens)
Construct: permanently transfected with an expression vector containing the full-length cDNA coding for the desired human sodium channel α-subunit; expressed in transfected cells; host or cells: HEK-293
Sequence (Q14524 whole entry): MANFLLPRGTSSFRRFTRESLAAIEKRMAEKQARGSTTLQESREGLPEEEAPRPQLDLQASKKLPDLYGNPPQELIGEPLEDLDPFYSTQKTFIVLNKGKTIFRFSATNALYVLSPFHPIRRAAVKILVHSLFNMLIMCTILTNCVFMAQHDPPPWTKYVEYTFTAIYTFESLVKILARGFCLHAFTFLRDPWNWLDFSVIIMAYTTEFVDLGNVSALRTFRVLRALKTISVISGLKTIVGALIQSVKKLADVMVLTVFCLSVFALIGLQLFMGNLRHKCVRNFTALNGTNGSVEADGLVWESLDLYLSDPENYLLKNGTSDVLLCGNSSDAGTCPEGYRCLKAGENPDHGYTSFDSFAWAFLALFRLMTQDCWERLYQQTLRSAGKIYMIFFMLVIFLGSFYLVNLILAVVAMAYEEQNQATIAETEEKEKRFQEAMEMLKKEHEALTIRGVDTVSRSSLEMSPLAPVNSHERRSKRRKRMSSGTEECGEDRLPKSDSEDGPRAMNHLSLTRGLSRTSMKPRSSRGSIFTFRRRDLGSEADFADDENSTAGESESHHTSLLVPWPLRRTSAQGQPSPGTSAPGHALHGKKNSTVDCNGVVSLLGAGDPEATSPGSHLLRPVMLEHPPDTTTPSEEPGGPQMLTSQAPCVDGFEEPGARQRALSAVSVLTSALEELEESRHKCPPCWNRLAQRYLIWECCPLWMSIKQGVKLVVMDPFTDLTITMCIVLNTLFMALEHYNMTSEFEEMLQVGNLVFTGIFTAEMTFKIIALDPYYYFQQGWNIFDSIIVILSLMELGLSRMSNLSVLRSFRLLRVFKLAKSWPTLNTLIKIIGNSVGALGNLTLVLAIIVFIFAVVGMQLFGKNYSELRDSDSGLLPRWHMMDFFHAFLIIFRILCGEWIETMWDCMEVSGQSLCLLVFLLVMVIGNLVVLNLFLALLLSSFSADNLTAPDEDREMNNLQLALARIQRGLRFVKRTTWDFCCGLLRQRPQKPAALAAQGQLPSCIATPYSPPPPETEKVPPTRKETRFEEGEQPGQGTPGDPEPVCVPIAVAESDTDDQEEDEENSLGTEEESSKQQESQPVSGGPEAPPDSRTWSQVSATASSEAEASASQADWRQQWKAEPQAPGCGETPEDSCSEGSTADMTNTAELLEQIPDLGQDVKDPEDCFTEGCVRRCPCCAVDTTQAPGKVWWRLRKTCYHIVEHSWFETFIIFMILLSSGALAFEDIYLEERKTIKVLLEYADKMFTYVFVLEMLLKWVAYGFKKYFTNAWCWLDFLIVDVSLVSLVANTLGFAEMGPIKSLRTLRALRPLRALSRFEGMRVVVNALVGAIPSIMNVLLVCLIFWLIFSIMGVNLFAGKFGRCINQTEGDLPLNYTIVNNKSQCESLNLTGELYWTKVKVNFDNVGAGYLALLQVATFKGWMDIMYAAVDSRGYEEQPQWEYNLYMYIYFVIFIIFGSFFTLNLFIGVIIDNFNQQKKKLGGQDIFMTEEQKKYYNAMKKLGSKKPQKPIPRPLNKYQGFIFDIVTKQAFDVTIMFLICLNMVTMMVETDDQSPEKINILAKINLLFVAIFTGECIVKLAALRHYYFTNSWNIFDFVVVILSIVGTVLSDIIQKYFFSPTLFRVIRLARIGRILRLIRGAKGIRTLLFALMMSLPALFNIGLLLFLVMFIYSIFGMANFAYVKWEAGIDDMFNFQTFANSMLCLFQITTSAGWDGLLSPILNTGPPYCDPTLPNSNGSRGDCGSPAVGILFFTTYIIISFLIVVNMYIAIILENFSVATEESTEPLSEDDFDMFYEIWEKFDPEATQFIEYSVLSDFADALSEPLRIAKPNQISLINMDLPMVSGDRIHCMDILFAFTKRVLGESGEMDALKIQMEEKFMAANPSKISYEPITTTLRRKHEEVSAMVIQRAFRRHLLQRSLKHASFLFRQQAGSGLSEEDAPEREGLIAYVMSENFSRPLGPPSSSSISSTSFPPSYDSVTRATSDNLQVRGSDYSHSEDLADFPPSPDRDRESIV
test.protocol: Patch voltage clamp electrophysiology assay (EP), NaV1.5
Type: cell-based
conditions.used: HEK-293 cells stably expressing NaV1.5 with β1 subunit; whole-cell patch clamp, membrane potential −60 mV (inactivated state); read-out: Nav1.5
Task for the reader: assign each of the following compounds its reported IC50.
Enter your answer as a number in µM; do not include the unit.

Item CC(c1cc(Cl)cc(Cl)c1)N1CCC(F)(COc2cc(F)c(C(=O)N3C[C@H](F)C[C@H]3C(=O)O)cc2C2CC2)CC1 (stereo partly shown) with NaV1.5 (Homo sapiens) - IC50?
9.4

State its IC50 on NaV1.5 (Homo sapiens): O=C(O)[C@H]1CSCN1C(=O)c1cc(C2CC2)c(OCC23CC4CC(CC(C4)C2)C3)cc1F
19.4

Give recorded IC50 with NaV1.5 (Homo sapiens) for the following compound: O=C(O)[C@@H]1CCCN1C(=O)c1cc(C2CC2)c(OCC23CC4CC(CC(C4)C2)C3)cc1F
3.5

What measured IC50 is associated with O=C(O)[C@@H]1CS(=O)(=O)CN1C(=O)c1cc(C2CC2)c(OCC23CC4CC(CC(C4)C2)C3)cc1F on NaV1.5 (Homo sapiens)?
21

Record lookup: for NaV1.5 (Homo sapiens), what IC50 belongs to O=C(O)[C@@H]1CCC(=O)N1C(=O)c1cc(C2CC2)c(OCC23CC4CC(CC(C4)C2)C3)cc1F ?
18

Record lookup: for NaV1.5 (Homo sapiens), what IC50 belongs to CO[C@@H]1C[C@@H](C(=O)O)N(C(=O)c2cc(C3CC3)c(OCC34CC5CC(CC(C5)C3)C4)cc2F)C1 ?
26

Observed IC50 on NaV1.5 (Homo sapiens) for CC1(C)[C@@H]2[C@@H](C(=O)O)N(C(=O)c3cc(C4CC4)c(OCC45CC6CC(CC(C6)C4)C5)cc3F)C[C@@H]21 , please.
16

* * *

test.system: hNav1.7 (Homo sapiens, UniProt Q15858)
Sequence (Q15858 1-1977 isoform Q15858-3): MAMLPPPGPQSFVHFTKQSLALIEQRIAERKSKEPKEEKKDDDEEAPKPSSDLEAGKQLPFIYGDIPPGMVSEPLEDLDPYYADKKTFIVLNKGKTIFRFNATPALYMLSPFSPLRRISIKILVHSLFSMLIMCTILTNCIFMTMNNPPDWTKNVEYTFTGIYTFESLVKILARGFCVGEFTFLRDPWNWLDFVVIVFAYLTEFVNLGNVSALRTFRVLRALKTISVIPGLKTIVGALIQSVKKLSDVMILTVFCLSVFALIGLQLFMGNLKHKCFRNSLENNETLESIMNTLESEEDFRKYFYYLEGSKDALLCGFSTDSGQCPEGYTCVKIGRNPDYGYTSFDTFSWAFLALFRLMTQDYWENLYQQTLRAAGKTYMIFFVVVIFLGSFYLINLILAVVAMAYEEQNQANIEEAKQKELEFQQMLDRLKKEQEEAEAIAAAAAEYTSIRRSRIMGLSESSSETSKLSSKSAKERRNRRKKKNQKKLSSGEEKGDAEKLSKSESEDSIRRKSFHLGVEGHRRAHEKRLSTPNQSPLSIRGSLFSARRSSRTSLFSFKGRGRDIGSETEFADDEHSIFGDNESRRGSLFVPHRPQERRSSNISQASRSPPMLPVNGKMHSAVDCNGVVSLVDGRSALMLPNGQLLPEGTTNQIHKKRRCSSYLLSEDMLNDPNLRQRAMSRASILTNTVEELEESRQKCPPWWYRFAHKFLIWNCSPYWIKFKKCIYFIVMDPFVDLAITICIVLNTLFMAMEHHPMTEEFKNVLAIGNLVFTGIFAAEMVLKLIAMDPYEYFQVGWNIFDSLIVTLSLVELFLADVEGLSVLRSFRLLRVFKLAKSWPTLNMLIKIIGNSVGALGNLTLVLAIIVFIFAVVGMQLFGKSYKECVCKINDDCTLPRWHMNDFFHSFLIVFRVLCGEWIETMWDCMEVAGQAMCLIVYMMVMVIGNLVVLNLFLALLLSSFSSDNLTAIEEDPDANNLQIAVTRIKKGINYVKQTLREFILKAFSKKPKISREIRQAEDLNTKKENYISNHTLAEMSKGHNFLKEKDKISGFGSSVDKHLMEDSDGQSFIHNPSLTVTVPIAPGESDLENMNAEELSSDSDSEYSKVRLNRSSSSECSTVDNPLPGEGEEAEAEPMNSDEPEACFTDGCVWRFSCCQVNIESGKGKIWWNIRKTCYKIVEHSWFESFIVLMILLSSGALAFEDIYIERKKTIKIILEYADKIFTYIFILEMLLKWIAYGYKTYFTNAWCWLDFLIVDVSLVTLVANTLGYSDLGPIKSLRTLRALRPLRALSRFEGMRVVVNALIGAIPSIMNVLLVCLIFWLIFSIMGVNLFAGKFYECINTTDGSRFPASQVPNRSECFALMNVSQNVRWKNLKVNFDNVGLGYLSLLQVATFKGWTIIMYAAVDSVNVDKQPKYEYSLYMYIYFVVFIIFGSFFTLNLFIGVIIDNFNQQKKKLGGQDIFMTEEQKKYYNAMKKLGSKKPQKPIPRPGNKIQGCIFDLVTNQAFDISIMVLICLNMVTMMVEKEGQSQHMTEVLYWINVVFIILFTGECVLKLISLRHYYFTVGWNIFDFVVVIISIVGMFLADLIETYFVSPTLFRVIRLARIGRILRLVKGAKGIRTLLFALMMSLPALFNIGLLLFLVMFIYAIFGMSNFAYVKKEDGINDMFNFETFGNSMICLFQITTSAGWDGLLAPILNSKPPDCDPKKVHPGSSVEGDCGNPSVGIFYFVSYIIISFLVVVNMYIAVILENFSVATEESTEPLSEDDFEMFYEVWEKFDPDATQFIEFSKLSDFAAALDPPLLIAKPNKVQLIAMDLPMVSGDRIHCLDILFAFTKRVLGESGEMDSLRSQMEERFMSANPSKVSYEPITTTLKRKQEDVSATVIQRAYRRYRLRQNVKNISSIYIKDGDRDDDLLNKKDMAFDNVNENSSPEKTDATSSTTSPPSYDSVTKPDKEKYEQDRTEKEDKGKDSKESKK
Sequence (Q07699 19-218 partner): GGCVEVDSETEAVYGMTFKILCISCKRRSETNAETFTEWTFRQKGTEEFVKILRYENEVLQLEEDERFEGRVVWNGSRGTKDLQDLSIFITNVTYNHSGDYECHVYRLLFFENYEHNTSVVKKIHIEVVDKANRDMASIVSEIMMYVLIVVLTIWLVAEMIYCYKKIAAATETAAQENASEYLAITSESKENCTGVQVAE
test.protocol: Tritiated compound binding (LBA) to membranes from cells expressing hNav1.7 and the β1 subunit, competitive binding
conditions.used: competitive binding vs 100 pM [3H]compound, 18 h, room temperature, membranes with hNav1.7 and β1 subunit
measured.parameter: pIC50
Units for pIC50: none; it is -log10 of a concentration expressed in mol/L.

Please give the measured pIC50 for this molecule: O=C(O)[C@@H]1C[C@@H](F)CN1C(=O)c1cc(C2CC2)c(OCCC2CCN(Cc3cc(Cl)cc(Cl)c3)CC2)cc1F [Example 94]
7.00

I am curious: what pIC50 value has been reported for O=C(O)[C@@H]1C[C@@H](F)CN1C(=O)c1cc(C2CC2)c(OCC2CCN(Cc3noc(-c4ccccc4Cl)n3)CC2)cc1F [Example 220] ?
6.80

Entry under review: O=C(NC(C(=O)O)C(F)(F)F)c1cc(C2CC2)c(OCC23CC4CC(CC(C4)C2)C3)cc1F (stereo not shown) [Example 223] . Reported pIC50?
6.04

# query: pIC50 of entry O=C(O)[C@@H]1CS(=O)(=O)CN1C(=O)c1cc(C2CC2)c(OCC23CC4CC(CC(C4)C2)C3)cc1F [Example 143]
6.77

I have this molecule here, CC1(C)SCN(C(=O)c2cc(C3CC3)c(OCC34CC5CC(CC(C5)C3)C4)cc2F)[C@@H]1C(=O)O [Example 155] , and I need its recorded pIC50.
7.17

Give its pIC50 value. Item: C[C@@H](O)[C@H](NC(=O)c1cc(C2CC2)c(OCC23CC4CC(CC(C4)C2)C3)cc1F)C(=O)O [Example 57]
6.37

Requested read-out: pIC50. Entry: O=C(O)[C@@H]1CCCN1C(=O)c1cc(C2CC2)c(OC[C@@H]2CCN(C(c3ccccc3)c3ccccc3)C2)cc1F (single isomer, unassigned) [Example 139b]
6.10

* * *

test.system: human NaV1.7 (Homo sapiens)
Construct: permanently transfected with an expression vector containing the full-length cDNA coding for the desired human sodium channel α-subunit
test.protocol: Patch voltage clamp electrophysiology assay (EP), NaV1.7
conditions.used: HEK-293 cells stably expressing NaV1.7 with β1 subunit; whole-cell patch clamp, membrane potential −60 mV (inactivated state)
Counter-ions that a name gives are not always drawn.
I'd be grateful if you could share measured IC50 for these entries.
Field format: number, assumed µM, no unit text.

Name the recorded IC50 for O=C(O)[C@@H]1CC2(CC2)CN1C(=O)c1cc(C2CC2)c(OCC2(F)CCN(Cc3ccc(C(F)(F)F)cc3Cl)CC2)cc1F .
1.5

// query IC50 value for entry O=C(NC1(C(=O)O)COC1)c1cc(C2CC2)c(OCC23CC4CC(CC(C4)C2)C3)cc1F
11

Form field: reported IC50 of O=C(O)[C@@H]1CCCN1C(=O)c1cc(Cl)c(Oc2cnc(OCC(F)(F)F)c(Cl)c2)cc1F [Example 191, trifluoroacetate]
19

Consider the molecule CC(C)[C@H](NC(=O)c1cc(C2CC2)c(OCC2(F)CCN(Cc3cc(Cl)cc(C(F)(F)F)c3)CC2)cc1F)C(=O)O and give its measured IC50.
8.6

Fill in: IC50 of CC(C)C[C@H](NC(=O)c1cc(C2CC2)c(OCC23CC4CC(CC(C4)C2)C3)cc1F)C(=O)O is ___
7

Form field: reported IC50 of CC1(COc2cc(F)c(C(=O)N[C@H](C(=O)O)C3CC3)cc2C2CC2)CN([C@H](c2ccccc2)c2cc(Cl)cc(Cl)c2)C1 (single isomer, unassigned)
0.61

* * *

test.system: human NaV1.7 (Homo sapiens, UniProt Q15858)
Construct: permanently transfected with an expression vector containing the full-length cDNA coding for the desired human sodium channel α-subunit
Sequence (Q15858 1-1977 isoform Q15858-3): as the sequence (Q15858 1-1977 isoform Q15858-3) above
Sequence (Q07699 19-218 partner): as the sequence (Q07699 19-218 partner) above
test.protocol: Patch voltage clamp electrophysiology assay (EP), NaV1.7
conditions.used: HEK-293 cells stably expressing NaV1.7 with β1 subunit; whole-cell patch clamp, membrane potential −60 mV (inactivated state)
pIC50: −log10 of the molar value.
Criterion: pIC50 meeting or surpassing 6. Met: true. Not met: false.

Quick check, pIC50 >= 6? O=C(O)[C@@H]1C[C@@H](F)CN1C(=O)c1cc(C2CC2)c(OCC2(F)CCN(Cc3ccc(C(F)(F)F)cc3Cl)CC2)cc1F
true

# check: pIC50 of O=C(NC(C(=O)O)C(F)(F)F)c1cc(C2CC2)c(OCC23CC4CC(CC(C4)C2)C3)cc1F (stereo not drawn) is greater than or equal to 6
false

Does O=C(O)[C@@H]1CCCN1C(=O)c1cc(F)c(OCC23CC4CC(CC(C4)C2)C3)cc1F have a reported pIC50 of at least 6?
false

Record CC1(O)C[C@@H](C(=O)O)N(C(=O)c2cc(C3CC3)c(OCC34CC5CC(CC(C5)C3)C4)cc2F)C1 (stereo partly drawn) ; criterion: pIC50 no lower than 6. Met?
false

* * *

Give measured log10 IC50 for each item. Keep answers brief.
test.system: human NaV1.7 (Homo sapiens, UniProt Q15858)
Construct: permanently transfected with an expression vector containing the full-length cDNA coding for the desired human sodium channel α-subunit
test.protocol: Patch voltage clamp electrophysiology assay (EP), NaV1.7
conditions.used: HEK-293 cells stably expressing NaV1.7 with β1 subunit; whole-cell patch clamp, membrane potential −60 mV (inactivated state)
Where a name gives a salt, the structure may show the parent alone.
A difference of one corresponds to tenfold IC50; all values are log10 with IC50 in µM.

Query: log10 IC50; subject: O=C(O)[C@@H]1C[C@@H](F)CN1C(=O)c1cc(C2CC2)c(OCC2CCN([C@H](c3cc(Cl)cc(Cl)c3)C(F)(F)F)CC2)cc1F (single isomer, unassigned) [Example 140a]
-0.77

What does the record list as log10 IC50 for CC(C)Nc1ccc(F)cc1CN1CCC(COc2cc(F)c(C(=O)N3C[C@H](F)C[C@H]3C(=O)O)cc2C2CC2)CC1 ?
-0.14

// query log10 IC50 value for entry O=C(O)[C@@H]1C[C@@H](F)CN1C(=O)c1cc(C2CC2)c(OCC2CCN(Cc3cc(Cl)cc(C(F)(F)F)c3)CC2)cc1F
-0.48

Request the reported log10 IC50 associated with CC1(COc2cc(F)c(C(=O)N3CCC[C@H]3C(=O)O)cc2C2CC2)CN(C(c2ccccc2)c2cc(Cl)cc(Cl)c2)C1 (stereo partly shown) [Example 196, trifluoroacetate]
0.15

What value of log10 IC50 has been recorded for this entry: O=C(c1cc(C2CC2)c(OCC23CC4CC(CC(C4)C2)C3)cc1F)N1CCC2CC21C(=O)O (stereo not shown)
0.54

# query: log10 IC50 of entry CO[C@@H]1C[C@@H](C(=O)O)N(C(=O)c2cc(C3CC3)c(OCC34CC5CC(CC(C5)C3)C4)cc2F)C1
-0.26

Would you kindly share the measured log10 IC50 for O=C(O)[C@@H]1CCCN1C(=O)c1cc(C2CC2)c(OC2C3CC4CC2CC(Cl)(C4)C3)cc1F (single isomer, unassigned) [Example 82] ?
0.26

Consider the compound shown here: CC(c1ccc(Cl)cc1Cl)N1CCC(COc2cc(F)c(C(=O)N3C[C@H](F)C[C@H]3C(=O)O)cc2C2CC2)CC1 (stereo partly shown) What is its recorded log10 IC50?
-0.47

Recorded log10 IC50 for C[C@]1(COc2cc(F)c(C(=O)N3CCC[C@H]3C(=O)O)cc2C2CC2)CCN(c2cc(C(F)(F)F)c(Cl)cn2)C1 , please?
0.41

Please give the measured log10 IC50 for this compound: COc1ncccc1-c1cc(C(=O)N2CCC[C@H]2C(=O)O)c(F)cc1Oc1cnc(OC(C)C)c(Cl)c1
-0.08

// query log10 IC50 value for entry O=C(O)[C@@H]1C[C@@H](F)CN1C(=O)c1cc(C2CC2)c(OCC2CCN(Cc3cc(C(F)(F)F)cc(Cl)c3F)CC2)cc1F
-0.28

Requested field: log10 IC50. Item: C[C@H]1OCN(C(=O)c2cc(C3CC3)c(OCC3(C)CN([C@H](c4ccccc4)c4cc(Cl)cc(Cl)c4)C3)cc2F)[C@@H]1C(=O)O
-0.57

Look up log10 IC50: CC(C)[C@@H](C(=O)O)N(C)C(=O)c1cc(C2CC2)c(COc2cc(Cl)cc(OC(F)(F)F)c2)cc1F
0.86

Attribution: patent US10125098B2
